Test system: Escherichia coli
ASSAY DETAILS: Activity of Escherichia coli beta-lactamase VIM-1 by spectrophotometry
Here, each record is paired with measured kcat data.
Give just the numeric value; s⁻¹ need not be written.

Query CC1(C)S[C@@H]2[C@H](NC(=O)[C@H](NC(=O)N3CCNC3=O)c3ccccc3)C(=O)N2[C@H]1C(=O)O yields kcat of 1500

Query CC1(C)S[C@@H]2[C@H](NC(=O)C(C(=O)O)c3ccccc3)C(=O)N2[C@H]1C(=O)O (stereo partly specified) yields kcat of 170

Query CO/N=C(\C(=O)N[C@@H]1C(=O)N2C(C(=O)O)=C(COC(N)=O)CS[C@H]12)c1ccco1 yields kcat of 325

Query C[C@@H](O)[C@H]1C(=O)N2C(C(=O)O)=C(SCCNC=N)C[C@H]12 yields kcat of 0.2

Query CO[C@@]1(NC(=O)C(C(=O)O)c2ccc(O)cc2)C(=O)N2C(C(=O)O)=C(CSc3nnnn3C)CO[C@@H]21 (stereo partly specified) yields kcat of 43
